# Test system: PC-3 prostate
# assay_protocol: NCI tumour cell line growth inhibition, 384-well format; in the data active = GI50 below about 0.43 µM; inactive = the rest
Residues, ends and D or L forms follow the SMILES beside them. *: point of attachment. Cbz = O=C(OCc1ccccc1)*
Lab note: assign the record to one of True (active), False (inactive)

Look over these answered cases.
[ask] Lab log entry: CC(C)C[C@@H](C=O)NC(=O)[C@H](CC(C)C)NC(=O)[C@H](CC(C)C)NC(=O)OCc1ccccc1 (Cbz-Leu-Leu-Leu-aldehyde) — outcome as called in the assay?
[reply] True

[ask] Lab log entry: Cc1ccccc1C(C(=O)NC1CCCCC1)N(C(=O)CNc1ncccc1F)c1cccc(F)c1 (centres undefined) — outcome as called in the assay?
[reply] False

[ask] Lab log entry: `Cc1[nH]nc2ncc(C(=O)N3CCC[C@H]3c3ccc(Cl)cc3)cc12` — outcome as called in the assay?
[reply] False

Now, please, on to the next compound.
[ask] Lab log entry: `C=CC(=O)Nc1cccc(Oc2nc(Nc3ccc(N4CCN(C)CC4)cc3OC)ncc2Cl)c1` — outcome as called in the assay?
[reply] False

---

# Test system: MCF7 breast
# assay_protocol: NCI tumour cell line growth inhibition, 384-well format; in the data active means GI50 below about 0.43 µM; inactive means the rest
Lab note: assign the record to one of TRUE (active), FALSE (inactive)

Look over these answered cases.
[ask] Lab log entry: `Cc1[nH]nc2ncc(C(=O)N3CCC[C@H]3c3ccc(Cl)cc3)cc12` — outcome as called in the assay?
[reply] FALSE

[ask] Lab log entry: `Cc1sc2c(c1C)C(c1ccc(Cl)cc1)=N[C@@H](CC(=O)NCCCN1CCN(C)CC1)c1nnc(C)n1-2` — outcome as called in the assay?
[reply] TRUE

[ask] Lab log entry: `C=CC(=O)Nc1cccc(Oc2nc(Nc3ccc(N4CCN(C)CC4)cc3OC)ncc2Cl)c1` — outcome as called in the assay?
[reply] FALSE

Now, please, on to the next compound.
[ask] Lab log entry: `C=CC(=O)N1CC[C@H](n2nc(C#Cc3cc(OC)cc(OC)c3)c3c(N)ncnc32)C1` — outcome as called in the assay?
[reply] FALSE

---

# System: OVCAR-8 ovarian
# assay_protocol: NCI tumour cell line growth inhibition, 384-well format
Residues, ends and D or L forms follow the SMILES beside them. *: point of attachment. Cbz = O=C(OCc1ccccc1)*
Please go through the items and note down their TGI.
Answers are plain numbers, in nM.

Example molecules with recorded TGI:
// `CN(C)Cc1c(C(=O)NCCOc2ccc(C(=O)NO)cc2)oc2ccccc12` : TGI value = 1130

// `C=CC(=O)Nc1cccc(Oc2nc(Nc3ccc(N4CCN(C)CC4)cc3OC)ncc2Cl)c1` : TGI value = 2760

Attention now turns to another entry.
// CC(C)C[C@@H](C=O)NC(=O)[C@H](CC(C)C)NC(=O)[C@H](CC(C)C)NC(=O)OCc1ccccc1 (Cbz-Leu-Leu-Leu-aldehyde) : TGI value = 313

---

# Tested on: OVCAR-8 ovarian
# assay_protocol: NCI tumour cell line growth inhibition, 384-well format
Residues, ends and D or L forms follow the SMILES beside them. *: point of attachment. Cbz = O=C(OCc1ccccc1)*
measurement_kind: GI50

// `CN(C)Cc1c(C(=O)NCCOc2ccc(C(=O)NO)cc2)oc2ccccc12` : GI50 value = 46.9 nM

Quick one: give me GI50 for each item below, same order please.
1. Cc1ccccc1C(C(=O)NC1CCCCC1)N(C(=O)CNc1ncccc1F)c1cccc(F)c1 (stereo not given)
2. Cc1sc2c(c1C)C(c1ccc(Cl)cc1)=N[C@@H](CC(=O)NCCCN1CCN(C)CC1)c1nnc(C)n1-2

[reply]
> 100000 nM
1210 nM

Quick one: give me GI50 for each item below, same order please.
1. CC(C)C[C@@H](C=O)NC(=O)[C@H](CC(C)C)NC(=O)[C@H](CC(C)C)NC(=O)OCc1ccccc1 (Cbz-Leu-Leu-Leu-aldehyde)
2. Nc1ncn([C@H]2C[C@H](OP(=O)(O)OC[C@H]3O[C@@H](n4cnc5c(=O)[nH]c(N)nc54)C[C@@H]3O)[C@@H](CO)O2)c(=O)n1

[reply]
1: 164 nM; 2: 10800 nM

---

# System: MDA-MB-435 melanoma
# assay_protocol: NCI tumour cell line growth inhibition, 384-well format
Residues, ends and D or L forms follow the SMILES beside them. *: point of attachment. Cbz = O=C(OCc1ccccc1)*
measurement_kind: TGI (µM)
One number for each entry, in µM.

// `CN(C)Cc1c(C(=O)NCCOc2ccc(C(=O)NO)cc2)oc2ccccc12` : TGI value = 0.401

// CC(C)C[C@@H](C=O)NC(=O)[C@H](CC(C)C)NC(=O)[C@H](CC(C)C)NC(=O)OCc1ccccc1 (Cbz-Leu-Leu-Leu-aldehyde) : TGI value = 0.321

Continuing:
// `C=CC(=O)Nc1cccc(Oc2nc(Nc3ccc(N4CCN(C)CC4)cc3OC)ncc2Cl)c1` : TGI value = 3.1

---

# Tested on: A498 renal
# assay_protocol: NCI tumour cell line growth inhibition, 384-well format
Please go through the items and note down their GI50.

Quick one: give me GI50 for each item below, same order please.
1. C=CC(=O)N1CC[C@H](n2nc(C#Cc3cc(OC)cc(OC)c3)c3c(N)ncnc32)C1
2. Cc1[nH]nc2ncc(C(=O)N3CCC[C@H]3c3ccc(Cl)cc3)cc12
3. Cc1ccccc1C(C(=O)NC1CCCCC1)N(C(=O)CNc1ncccc1F)c1cccc(F)c1 (centres undefined)
4. Cc1sc2c(c1C)C(c1ccc(Cl)cc1)=N[C@@H](CC(=O)NCCCN1CCN(C)CC1)c1nnc(C)n1-2

[reply]
1: 2.73 µM; 2: 39 µM; 3: > 100 µM; 4: 3.31 µM

---

# Tested on: OVCAR-4 ovarian
# assay_protocol: NCI tumour cell line growth inhibition, 384-well format
Please go through the items and note down their GI50.

Example compounds with recorded GI50:
// `Nc1ncn([C@H]2C[C@H](OP(=O)(O)OC[C@H]3O[C@@H](n4cnc5c(=O)[nH]c(N)nc54)C[C@@H]3O)[C@@H](CO)O2)c(=O)n1` : GI50 value = > 100 µM

// `C=CC(=O)Nc1cccc(Oc2nc(Nc3ccc(N4CCN(C)CC4)cc3OC)ncc2Cl)c1` : GI50 value = 1.54 µM

// Cc1ccccc1C(C(=O)NC1CCCCC1)N(C(=O)CNc1ccc(C#N)cc1)c1cccc(F)c1 (centres undefined) : GI50 value = 5.82 µM

Attention now turns to another entry.
// `CN(C)Cc1c(C(=O)NCCOc2ccc(C(=O)NO)cc2)oc2ccccc12` : GI50 value = 0.213 µM

---

# System: MDA-MB-435 melanoma
# assay_protocol: NCI tumour cell line growth inhibition, 384-well format
Please go through the items and note down their TGI.

Example compounds with recorded TGI:
// `Cc1sc2c(c1C)C(c1ccc(Cl)cc1)=N[C@@H](CC(=O)NCCCN1CCN(C)CC1)c1nnc(C)n1-2` : TGI value = > 100 µM

// `C=CC(=O)N1CC[C@H](n2nc(C#Cc3cc(OC)cc(OC)c3)c3c(N)ncnc32)C1` : TGI value = > 100 µM

Attention now turns to another entry.
// `Nc1ncn([C@H]2C[C@H](OP(=O)(O)OC[C@H]3O[C@@H](n4cnc5c(=O)[nH]c(N)nc54)C[C@@H]3O)[C@@H](CO)O2)c(=O)n1` : TGI value = > 100 µM
